Data provenance is PubChem BioAssay (NCATS).

# System: GB4
# protocol.notes: qHTS profiling for inhibitors of Plasmodium falciparum proliferation (AID 504749); also: nearly all actives have a fitted effect of over 60% in size
# settings: P. falciparum in erythrocytes, SYBR Green DNA, 72 h; series mostly up to 28.7 µM
Results filed as inconclusive are left out. Active and inactive are the calls of the source. Calls follow the shape of the dose curve; as a rule, active = well fitted inhibition curve with a large enough effect; inconclusive = small, poorly fitted or top-dose-only effect; inactive = flat fitted curve, though single readings scatter.
Return exactly one item of YES = active, NO = inactive

Solved entries (count: 2):
1. Cc1c(C)c2c(c(C)c1OC(=O)CCC(=O)O)CC[C@@](C)(CCC[C@H](C)CCC[C@H](C)CCCC(C)C)O2 | NO
2. O=C(NCCNCC(O)COc1ccc(O)cc1)N1CCOCC1 (stereo not given) | NO

Proceed to the following item.
Prompt: What outcome does the record of this test show for Cn1c(=O)c2c(ncn2CCOC(=O)C(C)(C)Oc2ccc(Cl)cc2)n(C)c1=O ?
Response: NO
